Assay: Single dose clinical study: plasma Compound A pharmacokinetics
Type: in vivo, human
Conditions: human, plasma, po, 1200 mg, plasma, healthy adults (Parts A,B), single oral 1200 mg, fasted; read-out: AUC(0-t) GM
Procedure: This was a single center, single dose, randomized, double blind, placebo controlled study in healthy subjects. It consisted of 4 parts: Parts A, B, C, and D. Each of the four study parts had 2 phases: Prerandomization Phase and Randomization Phase. The Prerandomization Phase lasted up to 30 days and consisted of a Screening Period and a Baseline Period, during which each subject's study eligibility was determined and baseline assessments were performed. […]
Quantity Measured: AUC(0-t)
Give your result as the value with the unit written after it.

Record summary for COc1ncc(C)c(-c2ccc3c(c2)[nH]c(=O)c2cnn([C@H]4CCOC4)c23)c1C [Compound A] : reported AUC(0-t) = 78400 ng·h/mL
